The origin of these recorded values is ChEMBL document CHEMBL4811235.

- Test system: MGC-803
- assay.text: Cytotoxicity against human MGC-803 cells incubated for 4 hrs by MTT assay
- Assay type: functional, cell-based
- assay.setup: MGC-803, 4 h
pIC50: −log10 of the molar value.
Each record here notes measured pIC50.

[
  {
    "compound.string": "O=C(CCc1ccccc1)N1CCC(O)(Cn2cnc3cc(NCCc4ccccc4)ccc3c2=O)CC1",
    "pIC50": 4.49
  },
  {
    "compound.string": "Nc1cc(Br)ccc1C(=O)N1CCC(O)(Cn2cnc3cc(Cl)ccc3c2=O)CC1",
    "pIC50": 4.52
  },
  {
    "compound.string": "O=C(CCc1ccccc1)N1CCC(O)(Cn2cnc3cc(NCc4ccccc4Cl)ccc3c2=O)CC1",
    "pIC50": 4.53
  }
]

---

Each record here notes measured IC50.
- system: Ubiquitin carboxyl-terminal hydrolase 7 (Homo sapiens, UniProt Q93009)
- Sequence (Q93009 whole entry, the tested form may be a part): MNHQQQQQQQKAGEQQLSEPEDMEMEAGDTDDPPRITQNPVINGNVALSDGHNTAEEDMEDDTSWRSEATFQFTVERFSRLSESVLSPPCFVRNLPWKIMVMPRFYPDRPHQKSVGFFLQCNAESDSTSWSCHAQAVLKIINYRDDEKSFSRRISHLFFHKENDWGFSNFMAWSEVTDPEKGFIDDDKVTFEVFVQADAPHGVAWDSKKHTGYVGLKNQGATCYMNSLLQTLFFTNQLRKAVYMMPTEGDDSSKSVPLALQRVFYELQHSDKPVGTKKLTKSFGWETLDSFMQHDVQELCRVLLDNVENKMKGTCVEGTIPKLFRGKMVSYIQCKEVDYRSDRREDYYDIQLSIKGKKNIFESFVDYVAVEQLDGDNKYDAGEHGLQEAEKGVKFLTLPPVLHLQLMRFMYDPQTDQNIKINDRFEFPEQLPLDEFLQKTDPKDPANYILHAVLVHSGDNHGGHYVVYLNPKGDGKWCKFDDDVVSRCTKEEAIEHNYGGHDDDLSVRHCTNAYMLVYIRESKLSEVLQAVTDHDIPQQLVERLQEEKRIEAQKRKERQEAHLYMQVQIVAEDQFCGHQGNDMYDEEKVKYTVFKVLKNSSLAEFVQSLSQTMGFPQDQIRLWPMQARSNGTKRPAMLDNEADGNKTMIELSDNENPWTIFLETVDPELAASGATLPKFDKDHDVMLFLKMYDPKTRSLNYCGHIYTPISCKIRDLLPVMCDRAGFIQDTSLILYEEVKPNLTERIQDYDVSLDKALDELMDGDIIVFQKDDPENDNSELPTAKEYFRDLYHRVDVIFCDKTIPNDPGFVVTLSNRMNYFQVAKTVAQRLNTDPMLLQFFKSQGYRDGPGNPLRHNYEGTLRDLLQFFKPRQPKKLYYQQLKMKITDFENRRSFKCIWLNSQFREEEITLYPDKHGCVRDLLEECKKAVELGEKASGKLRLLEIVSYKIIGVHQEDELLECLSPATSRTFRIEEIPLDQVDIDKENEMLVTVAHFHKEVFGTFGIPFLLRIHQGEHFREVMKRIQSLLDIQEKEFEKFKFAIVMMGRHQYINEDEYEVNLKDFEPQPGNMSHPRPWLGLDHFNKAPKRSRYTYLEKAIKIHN
- assay.text: Inhibition of recombinant USP7 catalytic domain (unknown origin) using UbA10 as substrate incubated with substrate for 75 mins followed by compound addition and measured after 1 hr by TR-FRET assay
outcome.measure: IC50 (µM)

[
  {
    "molecule": "CC(CC(=O)N1CCC(O)(Cn2cnc3cc(NCCN(C)C)ccc3c2=O)CC1)c1ccccc1 (stereo unspecified)",
    "outcome.measure": "IC50",
    "qualifying.sign": "=",
    "test.result": 1.54
  },
  {
    "molecule": "O=C(c1ccccn1)N1CCC(O)(Cn2cnc3cc(Cl)ccc3c2=O)CC1",
    "outcome.measure": "IC50",
    "qualifying.sign": ">",
    "test.result": 50
  },
  {
    "molecule": "O=C(CCc1ccccc1)N1CCC(O)(Cn2cnc3cc(NCc4ccco4)ccc3c2=O)CC1",
    "outcome.measure": "IC50",
    "qualifying.sign": "=",
    "test.result": 9.8
  },
  {
    "molecule": "O=C(CCc1ccccc1)N1CCC(O)(Cn2cnc3cc(Br)ccc3c2=O)CC1",
    "outcome.measure": "IC50",
    "qualifying.sign": "=",
    "test.result": 27.4
  },
  {
    "molecule": "O=C(Cc1ccc(C(F)(F)F)cc1)N1CCC(O)(Cn2cnc3cc(Cl)ccc3c2=O)CC1",
    "outcome.measure": "IC50",
    "qualifying.sign": ">",
    "test.result": 50
  },
  {
    "molecule": "O=C(CCc1ccccc1)N1CCC(O)(Cn2cnc3cc(NCCO)ccc3c2=O)CC1",
    "outcome.measure": "IC50",
    "qualifying.sign": "=",
    "test.result": 16.4
  },
  {
    "molecule": "O=C(c1ccc[nH]1)N1CCC(O)(Cn2cnc3cc(Cl)ccc3c2=O)CC1",
    "outcome.measure": "IC50",
    "qualifying.sign": ">",
    "test.result": 50
  },
  {
    "molecule": "Nc1cc(Br)ccc1C(=O)N1CCC(O)(Cn2cnc3cc(Cl)ccc3c2=O)CC1",
    "outcome.measure": "IC50",
    "qualifying.sign": "=",
    "test.result": 46.3
  },
  {
    "molecule": "O=C(CCc1ccccc1)N1CCC(O)(Cn2cnc3cc(NCCN4CCCCC4)ccc3c2=O)CC1",
    "outcome.measure": "IC50",
    "qualifying.sign": "=",
    "test.result": 37
  },
  {
    "molecule": "O=C(CCc1ccccc1)N1CCC(O)(Cn2cnc3cc(Cl)ccc3c2=O)CC1",
    "outcome.measure": "IC50",
    "qualifying.sign": "=",
    "test.result": 23.1
  },
  {
    "molecule": "CC(CC(=O)N1CCC(O)(Cn2cnc3cc(Cl)ccc3c2=O)CC1)c1ccccc1 (stereo unspecified)",
    "outcome.measure": "IC50",
    "qualifying.sign": "=",
    "test.result": 6.79
  }
]
